IC50 reference
target or system: Leucine aminopeptidase (Plasmodium falciparum 3D7)
Sequence (Q8IL11 whole entry): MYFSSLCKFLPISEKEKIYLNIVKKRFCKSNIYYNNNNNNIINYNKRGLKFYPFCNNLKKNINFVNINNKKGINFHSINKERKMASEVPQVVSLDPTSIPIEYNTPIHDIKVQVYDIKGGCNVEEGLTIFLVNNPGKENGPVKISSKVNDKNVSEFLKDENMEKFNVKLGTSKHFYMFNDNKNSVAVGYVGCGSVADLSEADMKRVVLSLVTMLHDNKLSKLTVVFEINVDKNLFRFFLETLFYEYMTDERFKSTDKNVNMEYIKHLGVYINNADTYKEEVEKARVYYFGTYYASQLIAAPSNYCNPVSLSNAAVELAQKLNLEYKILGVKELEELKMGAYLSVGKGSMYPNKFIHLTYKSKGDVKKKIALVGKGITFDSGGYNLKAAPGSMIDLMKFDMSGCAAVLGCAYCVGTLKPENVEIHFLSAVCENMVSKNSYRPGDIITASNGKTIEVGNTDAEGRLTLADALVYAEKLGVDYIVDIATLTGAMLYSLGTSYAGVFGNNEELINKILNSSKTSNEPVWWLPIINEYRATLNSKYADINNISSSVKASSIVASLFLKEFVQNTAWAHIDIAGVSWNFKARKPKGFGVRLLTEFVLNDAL
method: P. falciparum M17LAP inhibitors, primary screen, biochemical, fluorogenic H-Leu-NHMec substrate, 1536-well (AID 1619)
Format: functional
Calls of active or inactive are those of the source. The rule behind the calls is not given here.

Use the examples below as a reference point.
>>> test_result("CC1=C(C)CC(C(=O)NNC(=O)c2csc3c2CCC(C(C)(C)C)C3)C(C(=O)O)C1 (stereo not given)")
"8.98 µM (active)"
>>> test_result("CC1CCC2(CC1)NC(=O)N(CC(=O)Nc1ccc(N3CCOCC3)cc1)C2=O (stereo not given)")
"58.6 µM (active)"
>>> test_result("Cc1ccc(NC2SC(=O)N(Cc3cccc(C(=O)O)c3)C2=O)cc1 (stereo not given)")
"6.86 µM (active)"

// N#Cc1c(O)nc(S)nc1-c1ccccc1 : IC50 value = 15.7 µM (active)

// O=C(O)c1nn(Cc2ccc(Cl)cc2Cl)c2ccccc12 [LONIDAMINE] : IC50 value = 7.37 µM (active)

Hello, the source for this data is ChEMBL document CHEMBL1201862, in case you need it.
